- System: dengue virus type 2
- Experiment: Antiviral activity against DENV2 New Guinea C infected in human HuH7 cells after 48 hrs by luciferase reporter gene assay
- Assay type: functional, organism-based
- Condition description: Thailand/NGS-C/1944, Huh-7, 48 h
Readout type: EC50
The answer consists of two parts: a number and, after it, its unit.

Exam item: Which measured EC50 value corresponds to "COc1ccc(-c2cnc3c(-c4ccc(OC)c(OC)c4)snc3c2)cc1OC" ?
Marked response: 3.35 µM

====

- System: UniProtKB O14976
- Sequence (O14976 whole entry): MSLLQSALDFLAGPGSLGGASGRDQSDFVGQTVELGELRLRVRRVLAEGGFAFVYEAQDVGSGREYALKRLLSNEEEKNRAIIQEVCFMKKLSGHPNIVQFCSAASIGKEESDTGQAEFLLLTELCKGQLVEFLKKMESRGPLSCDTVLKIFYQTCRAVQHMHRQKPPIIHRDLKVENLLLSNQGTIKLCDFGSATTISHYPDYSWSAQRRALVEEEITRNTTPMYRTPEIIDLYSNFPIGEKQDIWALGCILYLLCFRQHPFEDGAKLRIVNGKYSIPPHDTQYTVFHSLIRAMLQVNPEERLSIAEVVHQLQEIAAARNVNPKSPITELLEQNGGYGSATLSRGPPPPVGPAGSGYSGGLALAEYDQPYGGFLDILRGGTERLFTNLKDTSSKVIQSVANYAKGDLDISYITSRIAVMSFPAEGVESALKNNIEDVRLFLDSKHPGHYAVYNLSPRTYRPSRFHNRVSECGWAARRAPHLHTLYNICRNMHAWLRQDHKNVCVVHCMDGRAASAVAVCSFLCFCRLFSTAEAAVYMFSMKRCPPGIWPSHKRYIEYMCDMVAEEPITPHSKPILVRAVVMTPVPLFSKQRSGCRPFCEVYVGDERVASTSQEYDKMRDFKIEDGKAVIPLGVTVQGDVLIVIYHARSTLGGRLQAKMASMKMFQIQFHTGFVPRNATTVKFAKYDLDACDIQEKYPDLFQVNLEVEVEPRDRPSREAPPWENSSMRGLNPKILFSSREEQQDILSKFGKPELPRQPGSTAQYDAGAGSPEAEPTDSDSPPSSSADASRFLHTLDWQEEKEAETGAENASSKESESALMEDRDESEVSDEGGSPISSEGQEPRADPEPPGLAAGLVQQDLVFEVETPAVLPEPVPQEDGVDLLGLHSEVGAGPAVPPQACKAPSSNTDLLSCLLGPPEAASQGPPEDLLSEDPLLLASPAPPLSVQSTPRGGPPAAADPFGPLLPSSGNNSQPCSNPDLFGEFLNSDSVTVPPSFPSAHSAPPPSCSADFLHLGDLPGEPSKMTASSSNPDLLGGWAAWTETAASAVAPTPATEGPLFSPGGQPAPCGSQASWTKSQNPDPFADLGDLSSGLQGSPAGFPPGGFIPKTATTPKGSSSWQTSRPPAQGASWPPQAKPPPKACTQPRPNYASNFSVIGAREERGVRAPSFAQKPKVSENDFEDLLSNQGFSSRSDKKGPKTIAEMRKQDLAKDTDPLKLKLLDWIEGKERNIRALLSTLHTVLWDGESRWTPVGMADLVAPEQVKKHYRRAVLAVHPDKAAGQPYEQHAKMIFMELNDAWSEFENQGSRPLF
Readout type: Kd (nM)
Write the value in nM as a bare number.

Exam item: Given the entry "COc1ccc(-c2cnc3c(-c4ccccc4)snc3c2)cc1OC" , report its measured Kd.
Marked response: 770
